Reported GI50 by item:
# Tested on: NCI-H23
# assayDetails: NCI tumour cell line growth inhibition, 48 h
The source made the active and inactive calls. No stated cut-off is given here; in the data, active = GI50 up to about 1.1 µM and inactive = higher.
observable: GI50

[[record]]
compound = "O=C(CCc1cc(O)ccc1O)OCCc1ccccc1"
testresult = "32.7 µM (inactive)"

[[record]]
compound = "Cc1ccc(/C=N/NS(=O)(=O)c2ccccc2)cc1"
testresult = "> 100 µM (inactive)"

[[record]]
compound = "CC(=N/NC(=S)N(C)C)/C(=N\\NC(=S)N(C)C)c1ccccc1"
testresult = "2.32 µM (inactive)"

[[record]]
compound = "CC(=O)OC1COC(Nn2c(=O)[nH]c3ccccc3c2=O)C(OC(C)=O)C1OC(C)=O (stereo not given)"
testresult = "> 100 µM (inactive)"

[[record]]
compound = "Cc1ccc(S(=O)(=O)NCCCCC(N)C(=O)O)cc1 (stereo not given)"
testresult = "> 100 µM (inactive)"

